Values from ChEMBL document CHEMBL1137941

system: HT-1080; assay: In vitro cytotoxic concentration against human fibrosarcoma cell line (HT1080) using MTT coloration; type: functional, cell-based
experimental_endpoint: IC50 (µg/mL)
Just the number in µg/mL, nothing appended.

Solved entries (count: 3):
Q) What value of IC50 has been recorded for this entry: `COc1cccc2c1C(=O)c1c(O)c3c(c(O)c1C2=O)C[C@@](O)(C(=O)CO)C[C@@H]3O[C@H]1C[C@H](NC(=O)OCC2=C(C(=O)OC(C)(C)C)N3C(=O)[C@@H](Cl)[C@@H]3S(=O)(=O)C2)[C@@H](O)[C@H](C)O1`
A) 0.08

Q) Query: IC50; subject: `CC1=C(C(=O)OC(C)(C)C)N2C(=O)[C@H](Cl)[C@H]2S(=O)(=O)C1`
A) 6

Q) What value of IC50 has been recorded for this entry: COc1cccc2c1C(=O)c1c(O)c3c(c(O)c1C2=O)C[C@@](O)(C(=O)CO)C[C@@H]3O[C@H]1C[C@H](N)C(O)[C@H](C)O1 (single isomer, unassigned)
A) 0.31

Next, consider the following compound.
Q) Request the reported IC50 associated with COc1cccc2c1C(=O)c1c(O)c3c(c(O)c1C2=O)C[C@@](O)(C(=O)CO)C[C@@H]3OC1C[C@H](NC(=O)OCC2=C(C(=O)OC(C)(C)C)N3C(=O)/C(=C/C(=O)OC(C)(C)C)[C@@H]3S(=O)(=O)C2)[C@@H](O)[C@H](C)O1 (some centres undefined)
A) 0.5
